experimental system: Plasmodium falciparum protein kinase 6 (PK6, PF3D7_1337100) (UniProt Q8IDW1)
protocol notes: PfPK6 kinase inhibitors, biochemical, TCAMS library (AID 1159586)
experimental conditions: recombinant PfPK6, Kinase-Glo ATP depletion luminescence
Results with a measured potency or affinity are listed apart. Activity calls are given as the source filed them. No rule for the calls is given here.
quantity kind: outcome

Ask | # get_value(readout='outcome', item= "CC(C)(CNCc1ccc(C(F)(F)F)cc1)c1nc(-c2ccc(Cl)c(O)c2)c(-c2ccncc2)[nH]1" )
Reply | inactive

Ask | Param item: "CN(CCNCc1ccc(-c2cccc(-c3nc4ccccc4[nH]3)c2)cc1)S(C)(=O)=O"
Reply | inactive

Ask | Let us now turn to "O=c1cc(NCCCN(Cc2cc3c(Cl)cc(Cl)cc3[nH]2)Cc2cc3c(Cl)cc(Cl)cc3[nH]2)[nH]c2ccccc12"
Reply | inactive

Ask | Next entry: "COc1cc2cc(Cc3cnc(N)nc3N)ccc2c(OC)c1OC"
Reply | inactive

Ask | Continue with "Cc1ccc(CNC(=O)c2cc3c(=O)n4cccc(C)c4nc3n(CCN3CCOCC3)c2=N)cc1"
Reply | inactive

Others:
Ask | Quick one: outcome for "CCCCN=C(N)Nc1ccc(OCCCOc2ccc(NC(N)=NCCCC)cc2)cc1" ?
Reply | inactive

Ask | Next compound: "CN(C)CCNCc1ccc(-c2ccc(-c3nc4ccc(F)cc4[nH]3)cc2)cc1"
Reply | inactive

Ask | "COc1ccc(CNC2CCN(c3ccc(NC(=O)c4cccc(Cl)c4)cc3)CC2)cc1OC" ?
Reply | inactive

Ask | And then "OCCNc1nc(Nc2cccc(O)c2)nc2ccccc12" , what is it?
Reply | inactive

###

experimental system: Calcium-dependent protein kinase 4 (Plasmodium falciparum (isolate 3D7))
protocol notes: PfCDPK4 kinase inhibitors, biochemical, TCAMS library (AID 1159588)
experimental conditions: recombinant PfCDPK4, Kinase-Glo ATP depletion luminescence
Entries with a potency or affinity are not part of this list. Active and inactive are the calls of the source. The limit is not given here; nearly all actives have IC50 up to about 0.91 µM.
quantity kind: outcome

Ask | Returns the measured outcome for the input compound. Input: "CC1(C)N=C(N)N=C(N)N1OCc1cc(Cl)c(CON2C(N)=NC(N)=NC2(C)C)cc1Cl"
Reply | inactive

Ask | Request: "O=C(O)c1ccc(-c2c[nH]c3ncc(-c4ccc(Cl)cc4)cc23)cc1"
Reply | inactive

Ask | Lookup "Fc1ccc(NC(=S)NN=Cc2ccccn2)cc1"
Reply | inactive

###

experimental system: L-lactate dehydrogenase (Plasmodium falciparum (isolate CDC / Honduras))
protocol notes: PfLDH activity inhibition – cell lysate, 3D7 strain, counter-screen for P. falciparum growth inhibition project (AID 2304);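 also: 0% = vehicle and 100% = reference inhibitor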
experimental conditions: P. falciparum 3D7 crude extract, LDH APAD/NBT absorbance; at 2 µM; active compounds read high
This listing pairs compounds with measured inhibition.
Numbers only; they are read as %.

Consider the following illustrative entries.
Ask | Can you look up the measured inhibition of "COc1ccc(CNC2CCN(C)CC2)cc1-c1ccc(S(=O)(=O)NC2CCC2)cc1" for me?
Reply | 1

Ask | Now try "COc1cccc2c(C)cc(NCc3ccc(Cl)cc3)nc12" .
Reply | 5

Ask | Likewise for "CS(=O)(=O)c1ccc(CCNCc2ccc(-c3ccc(CNC4Cc5ccccc5C4)cc3)nc2)cc1" ?
Reply | -3

Ask | "Cc1cccc2[nH]c(-c3ccc(-c4cccc(NC(=O)NCc5cccc(F)c5)c4)s3)nc12" , same question.
Reply | -2

Ask | Then this compound: "COc1ccc(-c2nc(NC(=O)Cc3coc4cc(OC)ccc34)sc2C)cc1"
Reply | -2

More entries:
Ask | Given the compound "CN1CCN(CCCCCNc2c3ccccc3nc3ccccc23)CC1" , what is its reported inhibition?
Reply | 5

Ask | Try "O=C(/C=C/c1ccc(Cl)c(Cl)c1)NCCCCCN1CCC(CCNC(=O)/C=C/c2ccc(Cl)c(Cl)c2)CC1" next.
Reply | -5

###

protocol notes: inhibition of 3D7 malaria parasite growth – strain 3D7 (AID 2306);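 also: 0% = DMSO wells and 100% = chloroquine plus artemisinin control wells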
experimental conditions: P. falciparum 3D7 erythrocytic growth, LDH absorbance, 72 h; at 2 µM; active compounds read high
quantity kind: growth inhibition (%)
Write it as a number; the unit % goes unstated.

The following compounds have reported results that may help.
Ask | What growth inhibition value was documented for this compound, "NC1=NC(c2ccccc2)(c2ccccc2)C(=O)N1CCCCc1ccccn1" ?
Reply | 94

Ask | Repeat for the following compound: "C[C@@H]1CN(c2cnn(Cc3ccc(NC(=O)Nc4cccc(C(F)(F)F)c4)cc3)c(=O)c2Cl)C[C@H](C)N1"
Reply | 86

Ask | Note, next up: "C#CCNCc1ccc(-c2cccc(-c3nc4c(C)cccc4[nH]3)c2)cc1"
Reply | 100

Ask | Thanks! And "O=[N+]([O-])c1cccc(CNCC2CCN(Cc3ccc(O)cc3)CC2)c1" ?
Reply | 98

Please find the next compound below.
Ask | I'd like to know its growth inhibition. The compound in question is "COc1ccc(CC(=O)Nc2ccc(-c3cccc(-c4nc5c(C)cccc5[nH]4)c3)cc2)cc1O"
Reply | 96

###

protocol notes: antimalarial activity against Dd2 strain (AID 2302);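 also: 0% = DMSO untreated growth and 100% = chloroquine plus artemisinin killed control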
experimental conditions: P. falciparum Dd2 in RBCs, LDH growth readout, 72 h; at 2 µM
Calls of active or inactive are those of the source.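 The calls were made as follows: active = growth inhibition above 50% at the single 2 µM test dose, taken to imply half-maximal potency below 2 µM; inactive = the rest.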
Form entry, call: pick from true (1) for active, false (0) for inactive

Ask | Which outcome was entered for the compound "O=C(/C=C/c1ccc(Cl)c(Cl)c1)NCCCCCN1CCN(C(=O)Nc2ccc(C(F)(F)F)cc2)CC1" in this test?
Reply | false (0)

Ask | For CCOC(=O)C1=C(C)N=c2sc(=Cc3cc(Cl)ccc3O)c(=O)n2C1c1ccc(OC)cc1 (stereo not drawn) then?
Reply | true (1)

Ask | Moving on to the next compound: "O=C(Nc1cccc(Cl)c1N1CCOCC1)C(Cl)(Cl)Cl"
Reply | true (1)

Ask | Queued: "Clc1cc(Nc2ncnc3sc(C#C[C@H]4CCCN4)cc23)ccc1OCc1cccnc1Cl"
Reply | true (1)

Ask | Query Cc1ccc(NC(C)C(=O)Nc2ccccc2)cc1S(=O)(=O)N1CCCCCC1 (stereo not drawn) next
Reply | true (1)

Ask | Next compound: "CC(C)(C)c1nn(-c2ccccc2)c2[nH]c(=O)c(CNCCc3ccccc3)cc12"
Reply | true (1)

Ask | Same thing, different compound: "O=C(c1ccco1)N1CCN(c2nc(-c3ccc(Cl)cc3)nc3ccccc23)CC1"
Reply | true (1)

Consider now this further compound.
Ask | Could you please tell me the result logged for "Fc1c(CNCC2CCN(CC3CCCCC3)CC2)cccc1C(F)(F)F" in this assay?
Reply | false (0)

###

protocol notes: HepG2 cytotoxicity, primary screen, cytotoxicity control for P. falciparum antimalarial project, cell-based, ATP luminescence (AID 2303);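 also: 0% = DMSO wells and 100% = digitonin-killed cells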
experimental conditions: HepG2 viability, 24-48 h, at 10 µM, active compounds read high
Recorded inhibition by entry
Use % as the unit, but write only the number.

The examples below pair each entry with its known result.
Ask | For the compound "COc1cc2ncnc(Nc3ccc4nc(Cc5ccccc5)[nH]c4c3)c2cc1OC" , what inhibition is on record?
Reply | -9

Ask | Also, "Cc1ccc(CN=C(N)NC(=O)c2nc(Cl)c(NCc3ccc(Cl)cc3)nc2N)c(C)c1" please.
Reply | 28

Ask | Try "COc1cc(Cc2cnc(N)nc2N)cc(OC(C)C)c1OC" next.
Reply | 10

Ask | How about "O=C(Nc1cccc(CN2CCCN(Cc3cccc(O)c3)CC2)c1)c1ccc(Cl)c(Cl)c1" ?
Reply | 25

Ask | Try "Cc1cc(F)ccc1Nc1nc(N(C)c2ccccc2)c2cccc(O)c2n1" next.
Reply | 38

Let's switch to this compound now.
Ask | Param item = "O=C(/C=C/c1ccc(Cl)c(Cl)c1)NCCCCCN1CCCN(C(=O)Nc2cccc(Cl)c2)CC1" ; retrieve measured inhibition.
Reply | 11

###

Reported inhibition is given for each of the following molecules.
protocol notes: HepG2 cytotoxicity, primary screen, cytotoxicity control for P. falciparum antimalarial project, cell-based, ATP luminescence (AID 2303);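 also: 0% = DMSO wells and 100% = digitonin-killed cells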
experimental conditions: HepG2 viability, 24-48 h, at 10 µM, active compounds read high
Only the number, expressed in %, is required.

// worked examples, inhibition included
Ask | // lookup inhibition for "CCCNC(=O)c1ccc(N2CCC(c3ccccc3C)CC2)nc1"
Reply | 6

Ask | Item: "CC(C)(C)C(=O)N1CCN(c2ccc([N+](=O)[O-])c(NC3CC3)c2)CC1"
Reply | 8

Ask | Next up: "O=C(NCc1ccc(Cl)cc1)c1ccc(CN2CCCN(Cc3cccc(O)c3)CC2)cc1"
Reply | 25

Ask | Now consider "Cc1nc(-c2cccc3c(NC(=O)Nc4ccc5nccc(N6CCN(C)CC6)c5c4)cccc23)no1" .
Reply | -4

Ask | Lookup "COc1ccccc1CCNc1nc(C)cc(N[C@@H](CC(C)C)C(=O)NCCc2ccccc2)n1"
Reply | 12

Ask | Lookup "CCc1nc(N)nc(N)c1-c1ccc(C(C)C)cc1"
Reply | 3

Ask | Ok, now "CC(=O)Nc1ccc(C(=O)Nc2cccc(-c3ccc(-c4nc5ccc(C(F)(F)F)cc5[nH]4)cc3)c2)cn1"
Reply | 46

Ask | Next molecule: "Cc1cccc(CN2CCCN(Cc3ccc(C(=O)Nc4ccc(C)c(F)c4)cc3)CC2)c1"
Reply | 47

Next:
Ask | Look up inhibition for this molecule: "O=S(=O)(NCCN1CCCC1)c1cccc(-c2ccc(CNCc3ccccc3)cc2)c1"
Reply | 54

Ask | Also need "CC1(C)N=C(N)N=C(N)N1OCc1ccc2ccccc2c1CON1C(N)=NC(N)=NC1(C)C" , thanks.
Reply | 8

Ask | // same read-out, input: "COc1ccc(Nc2nccc(NCCNC(=O)Nc3ccccc3F)n2)cc1"
Reply | 4

Ask | For "Cc1[nH]c(C)c(-c2ccc(-c3ccccc3Cl)nc2)c(=O)c1Br" then?
Reply | -2
